Biological target: Gag-Pol polyprotein (Human immunodeficiency virus type 1 group M subtype B (isolate HXB2)) (UniProt P04585)
Assay: RNase H inhibition, HIV 1 Gag Pol polyprotein, FRET biochemical assay, screening (AID 372)
Conditions: HIV-1 RT RNase H, FRET RNA/DNA substrate fluorescence; at 10 µM; active compounds read high
Out of some 100,000 compounds screened, about 770 (0.77%) were called active. The sample as a whole holds a higher share of actives than the screen did.
readout.type: inhibition (%)
The figure you give is taken to be in %; do not add the unit.

stdin: Requested field: inhibition. Item: Brc1ccc(N2COc3ccc4ccccc4c3C2)cc1
stdout: 18

stdin: Requested field: inhibition. Item: N#Cc1c(-c2ccccc2)cc(-c2ccco2)c(C#N)c1N
stdout: 18

stdin: Requested field: inhibition. Item: CSc1nc(C)c(C(C)=O)cc1C#N
stdout: 13

stdin: Requested field: inhibition. Item: COc1ccc(-c2cc(-c3ccc(OC)cc3)c(C#N)c(SCC(=O)c3ccc(C)cc3)n2)cc1
stdout: 17

stdin: Requested field: inhibition. Item: Cc1cc(C)c2nc3s/c(=C\c4cccc([N+](=O)[O-])c4)c(=O)n3c2c1
stdout: 10

stdin: Requested field: inhibition. Item: CCN(CC)C(=O)c1sc(NC(=O)c2cc(Cl)ccc2OC)c(C#N)c1C
stdout: 7
